From: paper PMC12155096

Target: CYP3A4 (Homo sapiens, UniProt P08684)
Sequence (P08684 whole entry): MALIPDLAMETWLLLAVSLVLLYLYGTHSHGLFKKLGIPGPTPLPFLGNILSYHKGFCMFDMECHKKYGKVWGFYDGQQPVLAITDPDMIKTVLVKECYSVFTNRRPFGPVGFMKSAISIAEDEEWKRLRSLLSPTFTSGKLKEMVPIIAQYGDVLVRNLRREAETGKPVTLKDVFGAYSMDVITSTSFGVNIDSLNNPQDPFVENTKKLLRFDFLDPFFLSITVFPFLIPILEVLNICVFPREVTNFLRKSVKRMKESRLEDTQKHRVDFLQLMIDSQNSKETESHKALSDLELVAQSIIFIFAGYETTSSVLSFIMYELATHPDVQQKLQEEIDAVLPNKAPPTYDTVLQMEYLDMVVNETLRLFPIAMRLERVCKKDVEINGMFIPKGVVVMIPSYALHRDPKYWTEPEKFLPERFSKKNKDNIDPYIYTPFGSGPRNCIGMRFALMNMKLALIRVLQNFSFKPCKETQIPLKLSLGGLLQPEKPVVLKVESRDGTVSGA
Experiment: biochemical
Conditions: CYP3A4 AC50 (half-maximal activity concentration)
Counter-ions that a name gives are not always drawn.
Entries get a class label from measured AC50. See ranges: lo (below 9 µM), med (9 µM to below 20 µM), hi (20 µM or more)

O=[N+]([O-])c1cccc2ccccc12 [1-Nitronaphthalene]	med
O=C(c1ccc(Cl)cc1)c1ccc(Cl)cc1 [4,4'-Dichlorobenzophenone]	med
O=S(=O)(c1ccccc1)c1ccccc1 [Diphenylsulfone]	hi
CN(C/C=C/c1ccccc1)Cc1cccc2ccccc12 [Naftifine hydrochloride]	med
O=C1c2ccccc2C(=O)C1C(=O)C(c1ccccc1)c1ccc(Cl)cc1 (centres unmarked) [Chlorophacinone]	hi
COP(=O)(OC)OC(=CCl)c1cc(Cl)c(Cl)cc1Cl [Tetrachlorovinphos]	lo
N#Cc1cc(I)c(O)c(I)c1 [Ioxynil]	hi
CCCCCCCC(=O)Oc1c(Br)cc(C#N)cc1Br [Bromoxynil octanoate]	med
CCCOC(=O)c1ccccc1C(=O)OCCC [Dipropyl phthalate]	med
ClC(Cl)=C(c1ccc(Cl)cc1)c1ccccc1Cl [o,p'-DDE]	hi
O=[N+]([O-])c1ccccc1-c1ccccc1 [2-Nitro-1,1'-biphenyl]	hi
CCNc1nc(NC(C)(C)C)nc(SC)n1 [Terbutryn]	med
CC(=O)O[C@]1(C(C)=O)CC[C@H]2[C@@H]3C=C(Cl)C4=CC(=O)CC[C@]4(C)[C@H]3CC[C@@]21C [Chlormadinone acetate]	lo
Cc1ccc2ccccc2n1 [Quinaldine]	hi
c1cnc2c(c1)ccc1cccnc12 [1,10-Phenanthroline]	hi
C[C@]12CCC(=O)C=C1CC[C@@H]1[C@@H]2CC[C@]2(C)C(=O)CC[C@@H]12 [4-Androstene-3,17-dione]	lo
COC(=O)COc1ccc(Cl)cc1Cl [2,4-D-methyl]	hi
Oc1ccc2[nH]cc(CCCCN3CC=C(c4ccccc4)CC3)c2c1 [Roxindole]	lo
Clc1ccc(C(c2ccccc2Cl)C(Cl)(Cl)Cl)cc1 (centres unmarked) [o,p'-DDT]	med
CN1CCc2cc(Cl)c(O)cc2[C@H]2c3ccccc3CC[C@@H]21 [Ecopipam]	lo
CC1(C)C(C=C(Cl)Cl)C1C(=O)OC(C#N)c1ccc(F)c(Oc2ccccc2)c1 (centres unmarked) [Cyfluthrin]	lo
CC(=O)[C@H]1CC[C@H]2[C@@H]3CC[C@H]4C[C@](C)(O)CC[C@]4(C)[C@H]3CC[C@]12C [Ganaxolone]	lo
O=C(NC(=O)c1c(F)cccc1F)Nc1cc(Cl)c(OC(F)(F)C(F)C(F)(F)F)cc1Cl (centres unmarked) [Lufenuron]	lo
CC(C)(C)c1ccc(CSc2cnn(C(C)(C)C)c(=O)c2Cl)cc1 [Pyridaben]	lo
CNC(=O)Oc1ccccc1C(C)C [Isoprocarb]	hi
ClC(c1ccccc1)(c1ccccc1)c1ccccc1 [Trityl chloride]	lo
O=C(Oc1ccccc1)c1ccccc1C(=O)Oc1ccccc1 [Diphenyl phthalate]	lo
c1ccc(P(c2ccccc2)c2ccccc2)cc1 [Triphenylphosphine]	hi
CC1(C)C(C=C(Cl)Cl)C1C(=O)OCc1cccc(Oc2ccccc2)c1 (centres unmarked) [Permethrin]	med
CSc1nc(NC(C)C)nc(NC(C)C)n1 [Prometryn]	hi
O=C(O)c1cc(I)cc(I)c1I [2,3,5-Triiodobenzoic acid]	hi
Clc1cc(Cl)c(-c2c(Cl)c(Cl)cc(Cl)c2Cl)cc1Cl	hi
CCOCCOC(=O)C=Cc1ccc(OC)cc1 [Cinoxate]	hi
CC[N+](C)(CC)CCOC(=O)C1c2ccccc2Oc2ccccc21 [Methantheline bromide]	med
CC(=O)OCC(=O)[C@@]1(OC(C)=O)[C@@H](C)C[C@H]2[C@@H]3C[C@H](F)C4=CC(=O)C=C[C@]4(C)[C@@]3(F)[C@@H](O)C[C@@]21C [Diflorasone diacetate]	lo
